Give measured solubility (mole fraction) for each item. Keep answers brief.
Details: in n-hexane, 308.15 K
When you answer, write just the number.

Give me measured solubility (mole fraction), please, for this molecule: Br.Fc1ccc(NC2=NCCC3(CCCCC3)[Se]2)cc1 2.35e-06

Give me measured solubility (mole fraction), please, for this molecule: Br.c1ccc(NC2=NCCC3(CCCCC3)[Se]2)cc1 8.46e-06

Give me measured solubility (mole fraction), please, for this molecule: Br.CC(C)c1ccc(NC2=NCCC3(CCCCC3)[Se]2)cc1 8.84e-06

---

Conditions: in n-octanol, 293.15 K
Give measured solubility (mole fraction) for each item. Keep answers brief.
When you answer, write just the number.

Give me measured solubility (mole fraction), please, for this compound: Br.Fc1ccc(NC2=NCCC3(CCCCC3)[Se]2)cc1 0.003

Give me measured solubility (mole fraction), please, for this compound: Br.c1ccc(NC2=NCCC3(CCCCC3)[Se]2)cc1 0.0186

Give me measured solubility (mole fraction), please, for this compound: Br.CC(C)c1ccc(NC2=NCCC3(CCCCC3)[Se]2)cc1 0.0484

---

Settings: in n-hexane, 303.15 K
property: solubility (mole fraction)
When you answer, write just the number.

Give me measured solubility (mole fraction), please, for this compound: Br.CC(C)c1ccc(NC2=NCCC3(CCCCC3)[Se]2)cc1 7.39e-06

Give me measured solubility (mole fraction), please, for this compound: Br.Fc1ccc(NC2=NCCC3(CCCCC3)[Se]2)cc1 1.9e-06

Give me measured solubility (mole fraction), please, for this compound: Br.c1ccc(NC2=NCCC3(CCCCC3)[Se]2)cc1 7.1e-06
